Tested on: biotinyl-Met-oxazolone
methodDescription: self-aminoacylation, catalytic enhancement (BMO) (fold over background); higher = more active; k-Seq, kA / k0A0; sequences stand for … in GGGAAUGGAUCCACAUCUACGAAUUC…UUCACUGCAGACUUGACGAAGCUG
Variants at the floor of the assay were thinned out.
Please respond with reported self-aminoacylation for every item in the list.
Give the figure by itself; no unit, no explanation.

Looking for the measured self-aminoacylation of CUGCUUCAGACAAUCGGUCUG [Fam1A.1 aminoacylation ribozyme variant] , can you help?
1.22

Query: self-aminoacylation; subject: AUUACCCUGGUCAUCUAGUGC [Fam2.1 aminoacylation ribozyme variant]
1.06

Item CCCAACUUCAAGCAAUCGGUC [Fam1B.1 aminoacylation ribozyme variant] has what recorded self-aminoacylation?
1.49

Requested field: self-aminoacylation. Item: CUACUUCUAAUAAUCGGUCUG [Fam1A.1 aminoacylation ribozyme variant]
0.699

Which self-aminoacylation value is on record for CUACUUCACACAAUGGGUCUG [Fam1A.1 aminoacylation ribozyme variant] ?
0.826

# self-aminoacylation lookup, item AAGUUUGCUAAUAAUCGCAUG [Fam3.1 aminoacylation ribozyme variant]
1.05

Dear colleague, I am looking for the recorded self-aminoacylation of the following sequence: AAGUCUGCUAAUAUUCGCAAG [Fam3.1 aminoacylation ribozyme variant]
1.49

Name the recorded self-aminoacylation for CUCUUUCAAACAAUCGGUCUG [Fam1A.1 aminoacylation ribozyme variant] .
1.13

What value of self-aminoacylation has been recorded for this entry: AUUAACCUAGGUAAUCGGGUG [Fam2.2 aminoacylation ribozyme variant]
2.62

Given the entry CCACACUUCGAGCAAGCGGUC [Fam1B.1 aminoacylation ribozyme variant] , report its measured self-aminoacylation.
0.927

Tell me the measured self-aminoacylation of AUAACCCUGUUCAUCGAGUGA [Fam2.1 aminoacylation ribozyme variant] , please.
3.8

Please report the recorded self-aminoacylation for AUUGACAUAGGUCAUCGGGUG [Fam2.2 aminoacylation ribozyme variant] .
7.3

Entry CUACUUCAAACAAUCAGUAUG [Fam1A.1 aminoacylation ribozyme variant] : reported self-aminoacylation = ?
0.891

Quick check: self-aminoacylation of AAGUUUGCUAAUAGCCGUAAG [Fam3.1 aminoacylation ribozyme variant] ?
1.39

State the recorded self-aminoacylation for this entry: CUACUUAAAACAAUCGUUCUG [Fam1A.1 aminoacylation ribozyme variant]
0.592

Query (sequence): CCACACUUCAUGCAAUCGGCC [Fam1B.1 aminoacylation ribozyme variant] ; field requested: self-aminoacylation
2.9

For the sequence AUCACCCUGUUCAUCGAGUGA [Fam2.1 aminoacylation ribozyme variant] , what self-aminoacylation is on record?
4.68

Data request, read-out self-aminoacylation, for CUACUUCAGACAAGCGGUCUG [Fam1A.1 aminoacylation ribozyme variant]
1.26

###

Tested on: biotinyl-Trp-oxazolone
methodDescription: self-aminoacylation, catalytic enhancement (BWO) (fold over background); higher = more active; k-Seq, kA / k0A0; sequences stand for … in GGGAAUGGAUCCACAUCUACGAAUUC…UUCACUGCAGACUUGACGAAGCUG
Variants at the floor of the assay were thinned out.
measurementKind: self-aminoacylation

Which self-aminoacylation value belongs to CGACUCUUCAAGCAAUCGGUC [Fam1B.1 aminoacylation ribozyme variant] ?
3.07

Quick check: self-aminoacylation of CUACUACAAACAAUCUGUCUG [Fam1A.1 aminoacylation ribozyme variant] ?
0.45

Quick one: self-aminoacylation of AAACACCUAGGUCAUCGGGUG [Fam2.2 aminoacylation ribozyme variant] ?
4.7

Can you share its self-aminoacylation? I mean this sequence: CUACUUCAAACAAUCGUCCUG [Fam1A.1 aminoacylation ribozyme variant]
0.491

What value of self-aminoacylation has been reported for the following sequence? UCACACUUCAAGCAAUCGGUA [Fam1B.1 aminoacylation ribozyme variant]
1.49

Consider the sequence CCACACGUCAGGCAAUCGGUC [Fam1B.1 aminoacylation ribozyme variant] and give its measured self-aminoacylation.
1.93

# get_value(readout='self-aminoacylation', item= AAGUUUGCGAAUAGUCACAAG [Fam3.1 aminoacylation ribozyme variant] )
0.863

State the recorded self-aminoacylation for this entry: CUGGUUCAAACAAUCGGUCUG [Fam1A.1 aminoacylation ribozyme variant]
9.11

Any idea what self-aminoacylation was measured for UUUCACCUAGGUCAUAGGGUG [Fam2.2 aminoacylation ribozyme variant] ?
1.23

Query (sequence): CUACUUCAAACAACCGGCCUG [Fam1A.1 aminoacylation ribozyme variant] ; field requested: self-aminoacylation
1.49

For AAGUUUGCUAAUAGGUGCAAG [Fam3.1 aminoacylation ribozyme variant] , what is its reported self-aminoacylation?
0.526

So what does the record say about self-aminoacylation for AUUCUCCUAGGUCACCGGGUG [Fam2.2 aminoacylation ribozyme variant] ?
7.7
